experiment: Induction of apoptosis in BMOL-NT cells assessed as increase in fragmented DNA at 10 uM measured after 3 days relative to control; assay type: cell-based; details: mouse, 72 h
QUANTITY KIND: fold change (FC)
Lab note: jot down the number only; don't add units.

Exercise: Need fold change (FC) of CC(C)c1ccc(Nc2cccc3c2C(=O)N(C2CCC(=O)NC2=O)C3=O)cc1 (configuration not stated) , thanks.
Solution: 1.5

* * *

assay: Growth inhibition of BMOL-NT cells assessed as increase in doubling time at 8 uM after 2 days relative to control; assay type: cell-based; set-up: scale not given: the % may be the effect or the level left; conditions: mouse, 48 h
QUANTITY KIND: Activity

Exercise: Need Activity of CNC(=O)c1cc(Oc2ccc(NC(=O)Nc3ccc(Cl)c(C(F)(F)F)c3)cc2)ccn1 , thanks.
Solution: 100 to 128%

* * *

assay: Antimitotic activity against BMOL-NT cells assessed as reduction in mitotic index at 10 uM measured after 3 days by phosphohistone H3 staining-based method; type: cell-based; parameters: scale not given: the % may be the effect or the level left; conditions: mouse, 72 h
QUANTITY KIND: Activity

Exercise: Need Activity of CNC(=O)c1cc(Oc2ccc(NC(=O)Nc3ccc(Cl)c(C(F)(F)F)c3)cc2)ccn1 , thanks.
Solution: 66 to 87%

* * *

assay: Growth inhibition of BMOL-NT cells assessed as doubling time at 8 uM (reference value: 29 to 32.5 hrs); assay type: cell-based; details: mouse
QUANTITY KIND: Time

Exercise: Need Time of CNC(=O)c1cc(Oc2ccc(NC(=O)Nc3ccc(Cl)c(C(F)(F)F)c3)cc2)ccn1 , thanks.
Solution: 58 to 74 h

* * *

assay: Growth inhibition of BMOL-NT cells assessed as doubling time at 4 uM (reference value: 29 to 32.5 hrs); format: cell-based; conditions: mouse
QUANTITY KIND: Time

Exercise: Need Time of CNC(=O)c1cc(Oc2ccc(NC(=O)Nc3ccc(Cl)c(C(F)(F)F)c3)cc2)ccn1 , thanks.
Solution: 37.4 to 37.9 h

* * *

experiment: Growth inhibition of BMOL-NT cells assessed as increase in doubling time at 10 uM after 2 days relative to control; format: cell-based; set-up: scale not given: the % may be the effect or the level left; conditions: mouse, 48 h
QUANTITY KIND: Activity

Exercise: Need Activity of CNC(=O)c1cc(Oc2ccc(NC(=O)Nc3ccc(Cl)c(C(F)(F)F)c3)cc2)ccn1 [SORAFENIB] , thanks.
Solution: 101 to 134%

* * *

test: Growth inhibition of BMOL-NT cells assessed as population doubling time at 1 uM (reference value: 29 to 32.5 hrs); format: cell-based; conditions: mouse
QUANTITY KIND: Time

Exercise: Need Time of CNC(=O)c1cc(Oc2ccc(NC(=O)Nc3ccc(Cl)c(C(F)(F)F)c3)cc2)ccn1 [SORAFENIB] , thanks.
Solution: 32.5 to 34.7 h

* * *

assay: Growth inhibition of BMOL-NT cells assessed as population doubling time at 0.5 uM (reference value: 29 to 32.5 hrs); type: cell-based; conditions: mouse
QUANTITY KIND: Time

Exercise: Need Time of CNC(=O)c1cc(Oc2ccc(NC(=O)Nc3ccc(Cl)c(C(F)(F)F)c3)cc2)ccn1 [SORAFENIB] , thanks.
Solution: 31.9 to 32.5 h

* * *

test: Growth inhibition of BMOL-NT cells; format: cell-based; details: mouse
QUANTITY KIND: GI50 (µM)
Please state the figure in µM; there is no need to write the unit.

Answered examples (5):
O=C1CCC(N2C(=O)c3ccccc3C2=O)C(=O)N1 (stereo unspecified) [THALIDOMIDE] ... 100
Nc1cccc2c1CN(C1CCC(=O)NC1=O)C2=O (stereo unspecified) [LENALIDOMIDE] ... 100
CC(C)(C)c1ccc(Nc2ccc3c(c2)C(=O)N(C2CCC(=O)NC2=O)C3=O)cc1 (stereo unspecified) ... 100
CCCCCc1ccc(Nc2cccc3c2C(=O)N(C2CCC(=O)NC2=O)C3=O)cc1 (stereo unspecified) ... 100
CCCCCc1ccc(Nc2ccc3c(c2)C(=O)N(C2CCC(=O)NC2=O)C3=O)cc1 (stereo unspecified) ... 60

Exercise: Need GI50 of CC(C)c1ccc(Nc2cccc3c2C(=O)N(C2CCC(=O)NC2=O)C3=O)cc1 (stereo unspecified) , thanks.
Solution: 60
